These data points were gathered from BindingDB's records for doi:10.1021/jm960153q.

Test: Concentration at which one-half of the maximum Low density lipoprotein receptor is upregulated in HepG2 cells
MEASUREMENT NAME: EC50 (µM)

Look over these answered cases.
Given item Cc1ccc(NC(=O)CCC2CCCCC2)cc1-c1nc2ccccc2[nH]1 , the value recorded as its EC50 is 1.3

Given item Cc1ccc2nc(-c3cc(NC(=O)CCC4CCCCC4)ccc3C)[nH]c2c1 , the value recorded as its EC50 is 1.3

Given item Cc1ccc(NC(=O)CCC2CCCCC2)cc1NC(=O)c1ccc(O)cc1 , the value recorded as its EC50 is 1.7

Given item Cc1ccc(NC(=O)CCC2CCCCC2)cc1-c1nc2ccc(O)cc2[nH]1 , the value recorded as its EC50 is 0.7

Given item Cc1ccc(NC(=O)CCC2CCCCC2)cc1NC(=O)c1ccc(N)cc1 , the value recorded as its EC50 is 3.8

[I] Cc1ccc(NC(=O)CCC2CCCCC2)cc1/C=C(\C#N)c1ccc2c(c1)OCO2
[II] Cc1ccc(NC(=O)CCC2CCCCC2)cc1C(=O)Nc1ccc(O)cc1
[III] Cc1ccc(C(=O)NCCC2CCCCC2)cc1NC(=O)c1ccc(O)cc1
[IV] Cc1ccc(NC(=O)CCC2CCCCC2)cc1/C=C(\C#N)c1cccnc1
[V] Cc1ccc(NC(=O)CCCC2CCCCC2)cc1NC(=O)c1ccc(O)cc1
Hey, can you sort those compounds up there by EC50, smallest first? Output the labels ranked as instructed.
I, IV, III, V, II

###

Biological target: Low-density lipoprotein receptor (Homo sapiens, UniProt P01130)
Sequence (P01130 whole entry): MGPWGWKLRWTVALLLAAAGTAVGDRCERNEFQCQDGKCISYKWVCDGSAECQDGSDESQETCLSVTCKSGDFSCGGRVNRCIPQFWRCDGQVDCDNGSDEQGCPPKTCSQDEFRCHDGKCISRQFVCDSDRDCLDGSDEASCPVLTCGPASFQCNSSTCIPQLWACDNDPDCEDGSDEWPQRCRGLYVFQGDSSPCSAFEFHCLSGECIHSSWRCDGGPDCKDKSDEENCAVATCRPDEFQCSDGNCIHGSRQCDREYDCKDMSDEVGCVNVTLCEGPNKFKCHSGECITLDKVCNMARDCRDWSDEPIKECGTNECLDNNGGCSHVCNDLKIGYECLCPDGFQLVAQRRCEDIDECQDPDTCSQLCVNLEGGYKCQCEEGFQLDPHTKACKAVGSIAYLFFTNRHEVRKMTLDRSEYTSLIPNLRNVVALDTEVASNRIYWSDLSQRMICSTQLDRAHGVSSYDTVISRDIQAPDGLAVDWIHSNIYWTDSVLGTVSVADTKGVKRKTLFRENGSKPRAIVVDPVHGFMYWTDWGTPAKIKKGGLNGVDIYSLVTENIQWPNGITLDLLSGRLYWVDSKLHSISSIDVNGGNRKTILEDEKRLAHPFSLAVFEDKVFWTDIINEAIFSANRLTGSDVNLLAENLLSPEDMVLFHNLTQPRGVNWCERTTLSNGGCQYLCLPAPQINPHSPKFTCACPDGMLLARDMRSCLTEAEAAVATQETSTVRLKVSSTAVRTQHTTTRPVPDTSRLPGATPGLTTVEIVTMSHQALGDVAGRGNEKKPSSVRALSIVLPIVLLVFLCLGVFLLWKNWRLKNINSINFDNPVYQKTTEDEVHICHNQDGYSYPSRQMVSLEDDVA
Assay: Concentration at which one-half the maximum Low density lipoprotein receptor up-regulation is observed in HepG2 cells
MEASUREMENT NAME: EC50 (µM)
Respond numerically; units are µM and should not be typed.

Given item Cc1ccc(C(=O)CCCC2CCCCC2)cc1NC(=O)c1cccnc1 , the value recorded as its EC50 is 2

###

Experiment: Concentration at which one-half of the maximum Low density lipoprotein receptor is upregulated in HepG2 cells
MEASUREMENT NAME: EC50 (nM)

Look over these answered cases.
Given item Cc1ccc(NC(=O)CCC2CCCCC2)cc1NC(=O)c1ccccc1 , the value recorded as its EC50 is 2000

Given item Cc1ccc(NC(=O)CCC2CCCCC2)cc1NC(=O)c1cccnc1 , the value recorded as its EC50 is 1200

Given item Cc1ccc(NC(=O)CCC2CCCCC2)cc1NC(=O)c1cccc(O)c1 , the value recorded as its EC50 is 2000

[1] Cc1ccc(NC(=O)CCC2CCCCC2)cc1NC(=O)c1ccc(CO)cc1
[2] CC(=O)Oc1ccc(C(=O)Nc2cc(NC(=O)CCC3CCCCC3)ccc2C)cc1
Could you kindly indicate whether 1 or 2 has the higher EC50 value? Use the label to indicate which entry you chose.
1
(1: 7600 nM, 2: 2500 nM)
